Data origin, for the record: ChEMBL document CHEMBL1833895

System: Nakaseomyces glabratus
ASSAY DETAILS: Antifungal activity against Candida glabrata 20/I after 24 hrs by microdilution method
Type: functional
MEASURED ATTRIBUTE: IC80 (µM)

> print(dat)
             structure.notation  measured.attribute  observed
1  O=C1C=CC(=O)C1=Cc1ccc(Cl)cc1                IC80      62.5
2  COc1ccc(C=C2C(=O)C=CC2=O)cc1                IC80      7.81
3   O=C1C=CC(=O)C1=Cc1ccc(F)cc1                IC80      31.2

====

Overview of recorded IC80 for various molecules
Tested on: Candida albicans
ASSAY DETAILS: Antifungal activity against Candida albicans ATCC 44859 after 24 hrs by microdilution method
Type: functional
CONDITION NOTES: ATCC 44859, 24 h
MEASURED ATTRIBUTE: IC80 (µM)

> print(dat)
                   structure.notation  observed
1      O=C1C=CC(=O)C1=Cc1ccc2ccccc2c1      15.6
2  OC(Cn1cncn1)(Cn1cncn1)c1ccc(F)cc1F         1
3     CN(C)c1ccc(C=C2C(=O)C=CC2=O)cc1      31.2
4             O=C1C=CC(=O)C1=Cc1ccco1      7.81
5        O=C1C=CC(=O)C1=Cc1ccc(Cl)cc1      7.81
